Tested on: HaCaT
Assay: Cytotoxicity against human HaCaT cells incubated for 48 hrs by MTT assay
Assay type: toxicity, cell-based
Details: dose < 250 µg/ml
Where a SMILES comes first, the peptide text is derived from it.

COMPOUND	Activity
CC[C@H](C)[C@H](NC(=O)[C@H](CC(C)C)NC(=O)[C@H](CCCNC(=N)N)NC(=O)[C@H](CC(C)C)NC(=O)[C@H](CC(C)C)NC(=O)[C@H](CCCCN)NC(=O)[C@H](CCCCN)NC(=O)[C@H](Cc1ccccc1)NC(=O)[C@H](CC(C)C)NC(=O)CNC(=O)[C@@H](N)CC(C)C)C(=O)N[C@@H](CCCCN)C(=O)N[C@@H](CCCCN)C(=O)NCC(=O)N[C@@H](Cc1ccccc1)C(=O)N[C@@H](CCCCN)C(=O)N[C@@H](CCCCN)C(=O)O (H-LGLFKKLLRLIKKGFKK-OH)	Dose-Dependent Effect
CC[C@H](C)[C@H](NC(=O)[C@H](CCCCN)NC(=O)[C@H](CCCNC(=N)N)NC(=O)[C@H](C)NC(=O)[C@H](CC(C)C)NC(=O)[C@H](CCCCN)NC(=O)[C@H](CCCCN)NC(=O)[C@H](Cc1ccccc1)NC(=O)[C@H](CC(C)C)NC(=O)CNC(=O)[C@@H](N)CCCNC(=N)N)C(=O)N[C@@H](CCCCN)C(=O)N[C@@H](CCCCN)C(=O)NCC(=O)N[C@@H](Cc1ccccc1)C(=O)N[C@@H](CCCCN)C(=O)N[C@@H](CCCCN)C(=O)O (H-RGLFKKLARKIKKGFKK-OH)	Dose-Dependent Effect

* * *

Tested on: Peritoneal macrophage
Assay: Cytotoxicity against mouse peritoneal macrophage cells incubated for 48 hrs by MTT assay
Assay type: toxicity, cell-based
Conditions: dose < 250 µg/ml
Where a SMILES comes first, the peptide text is derived from it.

COMPOUND	Activity
CC[C@H](C)[C@H](NC(=O)[C@H](C)NC(=O)[C@H](CCCNC(=N)N)NC(=O)[C@H](C)NC(=O)[C@H](CC(C)C)NC(=O)[C@H](CCCCN)NC(=O)[C@H](CCCCN)NC(=O)[C@H](Cc1ccccc1)NC(=O)[C@H](CC(C)C)NC(=O)CNC(=O)[C@H](C)N)C(=O)N[C@@H](CCCCN)C(=O)N[C@@H](CCCCN)C(=O)NCC(=O)N[C@@H](Cc1ccccc1)C(=O)N[C@@H](CCCCN)C(=O)N[C@@H](CCCCN)C(=O)O (H-AGLFKKLARAIKKGFKK-OH)	Dose-Dependent Effect
CC[C@H](C)[C@H](NC(=O)[C@H](CCCCN)NC(=O)[C@H](CCCNC(=N)N)NC(=O)[C@H](C)NC(=O)[C@H](CC(C)C)NC(=O)[C@H](CCCCN)NC(=O)[C@H](CCCCN)NC(=O)[C@H](Cc1ccccc1)NC(=O)[C@H](CC(C)C)NC(=O)CNC(=O)[C@@H](N)CCCNC(=N)N)C(=O)N[C@@H](CCCCN)C(=O)N[C@@H](CCCCN)C(=O)NCC(=O)N[C@@H](Cc1ccccc1)C(=O)N[C@@H](CCCCN)C(=O)N[C@@H](CCCCN)C(=O)O (H-RGLFKKLARKIKKGFKK-OH)	Dose-Dependent Effect
CC[C@H](C)[C@H](NC(=O)[C@H](CC(C)C)NC(=O)[C@H](CCCNC(=N)N)NC(=O)[C@H](CC(C)C)NC(=O)[C@H](CC(C)C)NC(=O)[C@H](CCCCN)NC(=O)[C@H](CCCCN)NC(=O)[C@H](Cc1ccccc1)NC(=O)[C@H](CC(C)C)NC(=O)CNC(=O)[C@@H](N)CC(C)C)C(=O)N[C@@H](CCCCN)C(=O)N[C@@H](CCCCN)C(=O)NCC(=O)N[C@@H](Cc1ccccc1)C(=O)N[C@@H](CCCCN)C(=O)N[C@@H](CCCCN)C(=O)O (H-LGLFKKLLRLIKKGFKK-OH)	Dose-Dependent Effect

Data provenance: ChEMBL document CHEMBL5236579
